target: PDE3A catalytic domain (PDE3Acat) (Homo sapiens); assay: Phosphodiesterase inhibitory activity, PDE3 ([3H]cAMP, recombinant enzyme); conditions: 30° C., 20 minutes, read-out: IC50(μmol/L) PDE3
Sequence (Q14432 674-1093 limits assumed): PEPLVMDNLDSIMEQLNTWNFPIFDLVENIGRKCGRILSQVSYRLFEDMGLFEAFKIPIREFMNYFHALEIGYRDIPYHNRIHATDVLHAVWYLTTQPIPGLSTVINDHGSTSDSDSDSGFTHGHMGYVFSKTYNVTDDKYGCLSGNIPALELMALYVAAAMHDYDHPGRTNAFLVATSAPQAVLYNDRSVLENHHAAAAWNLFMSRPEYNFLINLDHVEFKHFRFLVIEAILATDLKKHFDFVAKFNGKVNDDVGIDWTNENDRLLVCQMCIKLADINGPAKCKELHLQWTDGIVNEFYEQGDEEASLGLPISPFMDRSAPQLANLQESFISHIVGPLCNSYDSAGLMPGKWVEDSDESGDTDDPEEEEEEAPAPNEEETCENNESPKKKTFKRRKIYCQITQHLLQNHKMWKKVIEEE
Reported IC50 values follow for various molecules
experimental readout: IC50

| molecule | val |
| --- | --- |
| CCc1ccc2c(C3=NN(CCCCOc4ccc(C5=NNC(=O)CC5)c(F)c4F)C(=O)CC3C)ccc(OC)c2n1 (stereo not shown) | < 0.1 µmol/L |
| COc1ccc(-c2ccc(=O)n(CCCCOc3ccc(C4=NNC(=O)C4(C)C)c(F)c3F)n2)n2cc(C(F)(F)F)nc12 | 0.1 to 1 µmol/L |
| COc1ccc(-c2ccc(=O)n(CCCCOc3ccc(C4=NNC(=O)CC4)c(F)c3F)n2)c2nc(C(F)(F)F)nn12 | 0.1 to 1 µmol/L |
| COc1ccc(C2=NN(CCCCOc3ccc(C4=NNC(=O)CC4C)cc3)C(=O)CC2C)c2ccc(C)nc12 (stereo not shown) | 0.1 to 1 µmol/L |
| COc1ccc(-c2ccc(=O)n(CCCCOc3ccc(C4=NNC(=O)CC4C)cc3)n2)c2ccc(C(C)C)nc12 (stereo not shown) | < 0.1 µmol/L |
| COc1ccc(-c2ccc(=O)n(CCCCOc3ccc(C4=NNC(=O)CC4C)c(F)c3F)n2)c2nc(C(F)(F)F)nn12 (stereo not shown) | < 0.1 µmol/L |
| COc1ccc(-c2ccc(=O)n(CCCCOc3ccc(C4=NNC(=O)CC4C)c(F)c3F)n2)c2cc(C(F)(F)F)oc12 (stereo not shown) | < 0.1 µmol/L |

* * *

test system: LPS acute inflammation model in rats; experiment: LPS acute inflammation model in rats (total leukocytes in BALF); type: in vivo; conditions: Rattus norvegicus, Leukocyte, po, 3 h, 1 mg/kg orally after fasting overnight (values in [ ]), one hour before LPS inhalation, BALF 3 hours after LPS, read-out: Inhibition rate (total number of leukocytes in BALF)
Reported inhibition in vivo at 1 mg/kg is given for each of the following compounds.

| compound | inhibition in vivo at 1 mg/kg |
| --- | --- |
| CCc1ccc2c(C3=NN(CCCCOc4ccc(C5=NNC(=O)CC5)c(F)c4F)C(=O)CC3C)ccc(OC)c2n1 (centres unmarked) [Example 299] | 50 to 90% |
| COc1ccc(-c2ccc(=O)n(CCCCOc3ccc(C4=NNC(=O)CC4)c(F)c3F)n2)c2cccnc12 [Example 320] | 50 to 90% |
| CCc1ccc2c(-c3ccc(=O)n(CCCCOc4ccc(C5=NNC(=O)CC5)c(F)c4F)n3)ccc(OC)c2n1 [Example 283] | ≥ 90% |
| COc1ccc(-c2ccc(=O)n(CCCCOc3ccc(C4=NNC(=O)CC4C)c(F)c3F)n2)c2cccnc12 (centres unmarked) [Example 319] | 50 to 90% |
| COc1ccc(-c2ccc(=O)n(CCCCOc3ccc(C4=NNC(=O)CC4)c(F)c3F)n2)c2ccc(C)nc12 [Example 271] | 50 to 90% |

* * *

Quick list: pIC50 per entry.
biological target: PDE3A catalytic domain (PDE3Acat) (Homo sapiens); experiment: Phosphodiesterase inhibitory activity, PDE3 ([3H]cAMP, recombinant enzyme); conditions: 30° C., 20 minutes, read-out: IC50(μmol/L) PDE3
pIC50: −log10 of the molar value.
experimental readout: pIC50

| molecule | val |
| --- | --- |
| CCc1ccc2c(C3=NN(CCCCOc4ccc(C5=NNC(=O)CC5C)cc4)C(=O)CC3C)ccc(OC)c2n1 (single isomer, unassigned) [Example 339] | 5.00 to 6.00 |
| CCc1ccc2c(C3=NN(CCCCOc4ccc(C5=NNC(=O)CC5C)cc4)C(=O)CC3C)ccc(OC)c2n1 (single isomer, unassigned) [Example 341] | 5.00 to 6.00 |
| CCc1ccc2c(-c3ccc(=O)n(CCCCOc4ccc(C5=NNC(=O)C5(C)C)cc4F)n3)ccc(OC)c2n1 | 5.00 to 6.00 |
| COc1ccc(-c2ccc(=O)n(CCCCOc3ccc(C4=NNC(=O)C4(C)C)c(F)c3F)n2)c2sc(C(F)(F)F)nc12 | > 7.00 |
| COc1ccc(C2=NN(CCCCOc3ccc(C4=NNC(=O)CC4C)cc3)C(=O)CC2C)c2[nH]c(C(F)(F)F)nc12 (stereo not drawn) | > 7.00 |
| COc1ccc(-c2ccc(=O)n(CCCCOc3ccc(C4=NNC(=O)CC4)cc3F)n2)c2ccc(C)nc12 | 6.00 to 7.00 |
| CCc1ccc2c(C3=NN(CCCCOc4ccc(C5=NNC(=O)CC5C)c(F)c4F)C(=O)CC3C)ccc(OC)c2n1 (stereo not drawn) | > 7.00 |
| COc1ccc(-c2ccc(=O)n(CCCCOc3ccc(C4=NNC(=O)CC4)c(F)c3F)n2)c2ccc(C)nc12 | > 7.00 |
| CCc1ccc2c(C3=NN(CCCCOc4ccc(C5=NNC(=O)C5(C)C)cc4F)C(=O)CC3C)ccc(OC)c2n1 (stereo not drawn) | 5.00 to 6.00 |
| COc1ccc(-c2ccc(=O)n(CCCCOc3ccc(C4=NNC(=O)CC4)c(F)c3F)n2)c2nc(C(F)(F)F)[nH]c12 | > 7.00 |
| CCc1ccc2c(-c3ccc(=O)n(CCCCOc4ccc(C5=NNC(=O)CC5C)cc4F)n3)ccc(OC)c2n1 (single isomer, unassigned; (+)) [Example 328] | > 7.00 |
| CCc1ccc2c(-c3ccc(=O)n(CCCCOc4ccc(C5=NNC(=O)C5(C)C)cc4OC)n3)ccc(OC)c2n1 | ≤ 5.00 |
| CCc1ccc2c(-c3ccc(=O)n(CCCCOc4ccc(C5=NNC(=O)CC5C)cc4F)n3)ccc(OC)c2n1 (stereo not drawn) [Example 287] | > 7.00 |
| COc1ccc(-c2ccc(=O)n(CCCCOc3ccc(C4=NNC(=O)C4(C)C)c(F)c3F)n2)c2cc(C(F)(F)F)oc12 | > 7.00 |
| CCc1nc2c(OC)ccc(-c3ccc(=O)n(CCCCOc4ccc(C5=NNC(=O)CC5C)c(F)c4F)n3)c2o1 (stereo not drawn) | > 7.00 |
| COc1ccc(-c2ccc(=O)n(CCCCOc3ccc(C4=NNC(=O)CC4C)c(F)c3F)n2)c2cc(C(F)(F)F)sc12 (stereo not drawn) | > 7.00 |
| CCc1ccc2c(-c3ccc(=O)n(CCCOc4ccc(C5=NNC(=O)C5(C)C)c(F)c4F)n3)ccc(OC)c2n1 | 5.00 to 6.00 |
| COc1ccc(C2=NN(CCCCOc3ccc(C4=NNC(=O)CC4C)cc3)C(=O)CC2C)c2cccnc12 (stereo not drawn) | > 7.00 |
| CCc1ccc2c(C3=NN(CCCCOc4ccc(C5=NNC(=O)CC5)cc4)C(=O)CC3C)ccc(OC)c2n1 (stereo not drawn) | 5.00 to 6.00 |
| CCc1ccc2c(-c3ccc(=O)n(CCCCOc4ccc(C5=NNC(=O)CC5)c(F)c4F)n3)ccc(OC)c2n1 | > 7.00 |
| CCc1ccc2c(C3=NN(CCCCOc4ccc(C5=NNC(=O)CC5C)cc4)C(=O)CC3C)ccc(OC)c2n1 (single isomer, unassigned) [Example 342] | > 7.00 |
| CCc1ccc2c(C3=NN(CCCCOc4ccc(C5=NNC(=O)CC5)cc4F)C(=O)CC3C)ccc(OC)c2n1 (stereo not drawn) | > 7.00 |
| COc1ccc(-c2ccc(=O)n(CCCCOc3ccc(C4=NNC(=O)C4(C)C)c(F)c3F)n2)c2nc(C(F)(F)F)[nH]c12 | > 7.00 |
| COc1ccc(-c2ccc(=O)n(CCCCOc3ccc(C4=NNC(=O)CC4)c(F)c3F)n2)c2sc(C(F)(F)F)nc12 | > 7.00 |
| CCc1ccc2c(C3=NN(CCOc4ccc(C5=NNC(=O)CC5C)cc4)C(=O)CC3C)ccc(OC)c2n1 (stereo not drawn) | 5.00 to 6.00 |
| CCc1ccc2c(C3=NN(CCCCOc4ccc(C5=NNC(=O)C5(C)C)c(F)c4F)C(=O)CC3C)ccc(OC)c2n1 (stereo not drawn) | 6.00 to 7.00 |
| CCc1ccc2c(C3=NN(CCCCOc4ccc(C5=NNC(=O)CC5C)cc4OC)C(=O)CC3C)ccc(OC)c2n1 (stereo not drawn) | 6.00 to 7.00 |
